Biological target: Bromodomain-containing protein 4 (Homo sapiens, UniProt O60885)
Test: Inhibition of biotinylated H4 K5,8,12,16Ac peptide binding to GST-tagged BRD4 bromodomain1 (unknown origin) at 100 uM measured after 60 mins by AlphaScreen assay relative to control
property: inhibition (%)
Report only the number, with the unit % understood.

Here are 5 compounds together with their reported answers.
Field request: inhibition | item: Cc1noc(C)c1Cn1c(=O)nc(-c2ccccc2)c2c3c(sc21)CCCC3
46.4

And CCc1c(C)sc2c1c(-c1ccccc1)nc(=O)n2Cc1c(C)noc1C ?
9.5

And O=c1nc(-c2ccc(Cl)cc2)c2c3c(sc2n1Cc1cnc(Cl)s1)CC(c1ccccc1)CC3 (centres undefined) ?
44.9

And Cc1noc(C)c1Cn1c(=O)nc(-c2ccccc2)c2c3c(sc21)CC(C)(C)CC3 ?
86.6

And Cc1noc(C)c1Cn1c(=O)nc(-c2ccccc2)c2c3c(sc21)CCCCC3 ?
84.4

Others:
Field request: inhibition | item: COc1ccc(-c2nc(=O)n(Cc3c(C)noc3C)c3sc4c(c23)CCN(C(C)C)C4)cc1
82.9

And Cc1noc(C)c1COc1nc(-c2ccc(Cl)c(Cl)c2)c2c3c(sc2n1)CC(C(C)(C)C)CC3 (centres undefined) ?
32.6

And Cc1noc(C)c1Cn1c(=O)nc(-c2ccccc2)c2c3c(sc21)CCC3 ?
23

And CC(C)(C)C1CCc2c(sc3c2c(-c2ccccc2)nc(=O)n3Cc2ncccn2)C1 (centres undefined) ?
70.4

And CC(=O)Cn1c(=O)nc(-c2ccccc2)c2c3c(sc21)CCCC3 ?
23.7

Numbers sourced from ChEMBL document CHEMBL4392838.
